Task for the reader: assign each of the following molecules its reported pEC50.
biological target: Bifunctional purine biosynthesis protein ATIC (Homo sapiens, UniProt P31939); test: Inhibition of AICARFT in human NCI-H460 cells assessed as increase in ZMP levels using low folate media after 16 hrs by LC-MS method
Sequence (P31939 whole entry): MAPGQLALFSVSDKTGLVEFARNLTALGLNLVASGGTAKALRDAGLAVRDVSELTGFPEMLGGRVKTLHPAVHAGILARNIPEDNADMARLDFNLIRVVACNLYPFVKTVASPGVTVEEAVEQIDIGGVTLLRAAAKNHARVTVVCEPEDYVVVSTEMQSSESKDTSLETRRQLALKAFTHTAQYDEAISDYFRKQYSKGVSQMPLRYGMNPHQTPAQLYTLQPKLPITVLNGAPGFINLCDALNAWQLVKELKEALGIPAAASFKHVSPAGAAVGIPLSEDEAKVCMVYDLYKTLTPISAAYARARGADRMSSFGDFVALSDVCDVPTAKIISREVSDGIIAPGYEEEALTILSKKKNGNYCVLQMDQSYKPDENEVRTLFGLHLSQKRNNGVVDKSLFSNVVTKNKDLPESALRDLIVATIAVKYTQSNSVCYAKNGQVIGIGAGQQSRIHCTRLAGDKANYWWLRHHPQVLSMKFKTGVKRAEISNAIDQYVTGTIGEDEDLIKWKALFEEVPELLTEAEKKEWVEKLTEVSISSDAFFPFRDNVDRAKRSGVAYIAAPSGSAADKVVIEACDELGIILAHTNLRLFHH
The meaning of pEC50 here: minus log10 of the concentration in molar units.

Q: For the record O=c1[nH]ccc2cc(F)c(NS(=O)(=O)c3ccc(N4C[C@@H](F)[C@@H](O)C4)s3)cc12 (stereo in doubt) , what value of pEC50 is listed for Bifunctional purine biosynthesis protein ATIC (Homo sapiens, UniProt P31939)?
A: 7.77

Q: Next molecule up: "O=c1[nH]ccc2cc(F)c(NS(=O)(=O)c3ccc(N4CCC(O)CC4)s3)cc12"
A: 7.68

Q: Next molecule up: "CC1(C)CC(c2ccc(S(=O)(=O)Nc3cc4c(=O)[nH]ccc4cc3F)s2)=CNC1=O"
A: 8.00

Q: Next molecule up: "O=c1[nH]ccc2cc(F)c(NS(=O)(=O)c3ccc(N4C[C@H](O)C(F)(F)C4)s3)cc12"
A: 7.51
